Cited source for all entries: ChEMBL document CHEMBL1156212

Item-by-item account of inhibition
- Assayed system: UniProt O54939
- Sequence (O54939 whole entry): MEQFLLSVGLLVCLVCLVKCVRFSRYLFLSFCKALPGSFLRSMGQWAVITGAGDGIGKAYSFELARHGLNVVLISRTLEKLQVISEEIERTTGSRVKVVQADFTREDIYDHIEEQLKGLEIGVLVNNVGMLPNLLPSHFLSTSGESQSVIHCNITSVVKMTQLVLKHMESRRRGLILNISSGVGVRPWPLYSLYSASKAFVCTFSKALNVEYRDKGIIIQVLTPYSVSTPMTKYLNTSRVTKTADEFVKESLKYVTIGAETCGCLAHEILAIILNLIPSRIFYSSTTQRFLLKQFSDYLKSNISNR
- Test method notes: Inhibition of 17beta-HSD3 in Sprague-Dawley rat testis microsomes at 100 uM

Worked cases, inhibition given:
O=C1/C(=C/c2cccc(Br)c2)CCC/C1=C\c1cccc(Br)c1 : 40%
CN(C)c1ccc(/C=C2\CCC/C(=C\c3ccc(N(C)C)cc3)C2=O)cc1 : 10%
O=C1/C(=C/c2cccc(C(F)(F)F)c2F)CC/C1=C\c1cccc(C(F)(F)F)c1F : 23%
O=C1/C(=C/c2ccc(F)cc2)CC/C1=C\c1ccc(F)cc1 : 15%
COc1cc(/C=C2\CC/C(=C\c3ccc(OCCCN(C)C)c(OC)c3)C2=O)ccc1OCCCN(C)C : 32%

Memo: CCOc1ccc(/C=C/C(=O)/C=C/c2ccc(OCC)cc2)cc1 , reported inhibition: 16%

Memo: O=C(/C=C/c1ccc(O)cc1)/C=C/c1ccc(O)cc1 , reported inhibition: 33%

Memo: O=C1/C(=C/c2ccc(O)cc2)CC/C1=C\c1ccc(O)cc1 , reported inhibition: 15%
